system: HCC78 NSCLC cells (with ROS1 rearrangement); test: MTT cytotoxicity assay on HCC78 NSCLC cells; type: cell-based; conditions: Homo sapiens, 72 h, mean±SEM, read-out: IC50 (cell viability, MTT)
outcome-measure: IC50 (µM)
Express it in µM; write the number only.

query: In one line, give reported IC50 of the entry CCN(CC)CCNC(=O)c1cc2c(=O)n(C)c3cc(Cl)ccc3c2s1 [compound of Formula (V)] .
result: 6.35
